Data origin, for the record: patent US8674113B2

Target: mPGES-1 in A549 cells (Homo sapiens (Human), UniProt O14684)
Sequence (O14684 whole entry): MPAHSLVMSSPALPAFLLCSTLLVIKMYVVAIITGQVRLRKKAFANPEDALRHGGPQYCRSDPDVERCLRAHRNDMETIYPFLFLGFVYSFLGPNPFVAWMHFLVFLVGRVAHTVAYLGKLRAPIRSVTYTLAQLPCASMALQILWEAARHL
Assay: A549 cell-based assay (PGE2 formation, 50% human serum)
Conditions: IL-1β 5 ng/ml, 10 nM arachidonic acid, 20-24 h, read-out: mPGES-1 inhibitory effect IC50 in the cell assay
Catalogue of compounds with associated pIC50
Please treat pIC50 as minus the base-10 logarithm of the molar concentration.

INSERT INTO assay_data (compound, numeric_value) VALUES
  ('Cn1c(Nc2c(Cl)ccc(CNC(=O)C(C)(C)F)c2Cl)nc2cc(C(=O)N[C@H]3CC[C@H](C(F)(F)F)CC3)c(N3CCC(C(C)(C)O)CC3)cc21', 8.70),
  ('Cn1c(Nc2c(Cl)ccc(CNC(=O)C(C)(C)C)c2Cl)nc2cc(C(=O)NCC(F)(F)C(F)(F)F)c(N3CCC(C(F)(F)F)CC3)cc21', 9.00),
  ('Cn1c(Nc2c(Cl)ccc(CNC(=O)c3cc(CO)ccn3)c2Cl)nc2cc(C(=O)N[C@H]3CC[C@H](C(F)(F)F)CC3)c(N3CC4CC4C3)cc21 (stereo partly drawn)', 6.77),
  ('Cn1c(Nc2c(Cl)ccc(CNC(=O)C(C)(C)C)c2Cl)nc2cc(C(=O)Nc3ccc(F)c(Cl)c3)c(N3CCC(F)(F)C3)cc21', 8.70),
  ('Cn1c(Nc2c(Cl)ccc(CNC(=O)C(C)(C)F)c2Cl)nc2cc(C(=O)NCC(F)(F)C(F)(F)F)c(N3CCOCC3)cc21', 8.34);

q: GET /values?readout=pIC50&system=mPGES-1 in A549 cells (Homo sapiens (Human), UniProt O14684)&item= Cn1c(Nc2c(Cl)ccc(CNC(=O)[C@](C)(O)C(F)(F)F)c2Cl)nc2cc(C(=O)Nc3ccc(F)c(Cl)c3)c(N3CCC(C(F)(F)F)CC3)cc21
a: 8.10

q: Now consider Cn1c(Nc2c(Cl)ccc(CNC(=O)c3c(N)cccc3Cl)c2Cl)nc2cc(C(=O)NCCC(F)(F)F)c(N3CCC(C(F)(F)F)CC3)cc21 and answer again.
a: 7.47

q: Next: Cn1c(Nc2c(Cl)ccc(CNC(=O)C(C)(C)C)c2Cl)nc2cc(C(=O)NCC(F)(F)C(F)(F)F)c(N3CCC(F)CC3)cc21
a: 8.85

q: # repeat for Cn1c(Nc2c(Cl)ccc(CNC(=O)C(C)(C)F)c2Cl)nc2cc(C(=O)NCCC(F)(F)F)c(N3CCCC(C(F)(F)F)C3)cc21 (stereo not drawn)
a: 8.70

q: Input Cn1c(Nc2c(Cl)ccc(CNC(=O)C3(O)CC3)c2Cl)nc2cc(C(=O)N[C@H]3CC[C@H](C(F)(F)F)CC3)c(N3CC4CC4C3)cc21 (stereo partly drawn)
a: 8.52

q: Repeat for the following compound: Cn1c(Nc2c(Cl)ccc(CNC(=O)C(C)(C)C)c2Cl)nc2cc(C(=O)Nc3cccc(C(F)(F)F)n3)c(N3CCC(F)(F)C3)cc21
a: 9.00
